Assay: Mouse pharmacokinetics (oral cassette dosing), plasma
Format: in vivo
Conditions: female, mouse, BALB/c immunocompetent mice, 5 mg/kg p.o., read-out: Tmax
Structures can show the parent of a compound that is named as a salt.
Each record here notes measured Tmax.
recorded-metric: Tmax (min)

1) CNS(=O)(=O)Nc1cccc(Cc2c(CN(C)C)c3ccc(OC(=O)N(C)C)cc3oc2=O)c1Cl: 4.98
2) CCN(C)Cc1c(Cc2cccc(NS(=O)(=O)NC)c2Cl)c(=O)oc2cc(OC(=O)N(C)C)ccc12: 4.98
3) CCN(C)Cc1c(Cc2cccc(NS(=O)(=O)NC)c2F)c(=O)oc2cc(OC(=O)N(C)C)c(F)cc12: 4.98
4) CNS(=O)(=O)Nc1cccc(Cc2c(CN(C)CCF)c3ccc(OC(=O)N(C)C)cc3oc2=O)c1F: 4.98
5) CNS(=O)(=O)Nc1cccc(Cc2c(CN(C)C)c3ccc(OC(=O)N(C)C)cc3oc2=O)c1Br: 30
6) CNS(=O)(=O)Nc1cccc(Cc2c(CN3CCNCC3)c3cc(Cl)c(OC(=O)N(C)C)cc3oc2=O)c1Cl [Compound 256, hydrochloride]: 30
7) CCS(=O)(=O)Nc1cccc(Cc2c(CN3CCNCC3)c3cc(Cl)c(OC(=O)N(C)C)cc3oc2=O)c1Cl [Compound 257, hydrochloride]: 240

* * *

Tested on: cynomolgus monkey hepatocytes
Experiment: Hepatocyte stability, cynomolgus monkey
Type: in vitro ADME
Settings: 2 μM, 0.5 million cells/ml
recorded-metric: CLint (mL/min/kg)

1) CNS(=O)(=O)Nc1cccc(Cc2c(CN(C)C)c3ccc(OC(=O)N(C)C)cc3oc2=O)c1F: 54.9 mL/min/kg
2) CCCS(=O)(=O)Nc1cccc(Cc2c(CN3CCNCC3)c3cc(Cl)c(OC(=O)N(C)C)cc3oc2=O)c1F: 83.7 mL/min/kg
3) CCS(=O)(=O)Nc1cccc(Cc2c(CN(C)C)c3ccc(OC(=O)N(C)C)cc3oc2=O)c1F: 77.8 mL/min/kg
4) CNS(=O)(=O)Nc1cccc(Cc2c(CN3CCNCC3)c3cc(F)c(OC(=O)N(C)C)cc3oc2=O)c1F: 16.3 mL/min/kg
5) CNS(=O)(=O)Nc1cccc(Cc2c(CN(C)C)c3cc(F)c(OC(=O)N(C)C)cc3oc2=O)c1F: 14.8 mL/min/kg
6) CNS(=O)(=O)Nc1nccc(Cc2c(CN(C)C)c3ccc(OC(=O)N(C)C)cc3oc2=O)c1F: 47.9 mL/min/kg

* * *

Each record here notes measured half-life at 2 μM.
Assay: Plasma stability, human plasma (K2EDTA)
Type: in vitro ADME
Conditions: pH 7.4; human plasma, 2 μM, anti-coagulant K2-EDTA, 10 to 120 min; read-out: T1/2
Structures can show the parent of a compound that is named as a salt.
recorded-metric: half-life at 2 μM

1) CNS(=O)(=O)Nc1cccc(Cc2c(CN3CCNCC3)c3cc(Cl)c(OC(=O)N(C)C)cc3oc2=O)c1Cl [Compound 256, hydrochloride]: 841 min
2) CNS(=O)(=O)Nc1cccc(Cc2c(CN3CCNCC3)c3ccc(OC(=O)N(C)C)cc3oc2=O)c1Cl [Compound 246, hydrochloride]: > 120 min
3) CCS(=O)(=O)Nc1cccc(Cc2c(CN3CCNCC3)c3cc(Cl)c(OC(=O)N(C)C)cc3oc2=O)c1Cl [Compound 257, hydrochloride]: 10400 min
